# tgt: UniProtKB P12268
# run-description: biochemical
# measurement-parameters: read-out: Ki
pKi: −log10 of the molar value.

compound | tgt | pKi
CCN(CC)C[C@H](OC(=O)NCc1cccc(NC(=O)Nc2ccc(-c3cnco3)c(OC)c2)c1)c1ccccc1 | UniProtKB P12268 | > 8.00
CC[C@H](COP(=O)(O)O)OC(=O)NCc1cccc(NC(=O)Nc2ccc(-c3cnco3)c(OC)c2)c1 | UniProtKB P12268 | 7.30 to 8.00
COc1cc(NC(=O)Nc2cccc(CNC(=O)OC(CCC#N)C(F)(F)F)c2)ccc1-c1cnco1 (stereo not shown) | UniProtKB P12268 | > 8.00
CCN(CC)CC(OC(=O)Nc1ccc(NC(=O)Nc2ccc(-c3cnco3)c(OC)c2)cc1)C(C)(C)C (stereo not shown) | UniProtKB P12268 | < 7.30

====

# System: human PBMC T cells
# run-description: cells
# Format: cell-based
# measurement-parameters: Homo sapiens, 72 h, read-out: T-cells (IC50)
pIC50: −log10 of the molar value.
pIC50: recorded values
measured-property: pIC50

molecule | measured-property | result
COc1cc(NC(=O)Nc2cccc(CNC(=O)OC(CC#N)C(C)(C)C)c2)ccc1-c1cnco1 (stereo not shown) [Compound 46] | pIC50 | 6.00 to 7.00
COc1cc(NC(=O)Nc2cccc(CNC(=O)Oc3cccc(/C=C/C(=O)OC(C)(C)C)c3)c2)ccc1-c1cnco1 [Compound 74] | pIC50 | < 6.00
CC[C@H](CCN(CC)CC)OC(=O)NCc1cccc(NC(=O)Nc2ccc(-c3cnco3)c(OC)c2)c1 [Compound 92] | pIC50 | 6.00 to 7.00
COc1cc(NC(=O)Nc2cccc(CNC(=O)OCC(C)(C)CCC#N)c2)ccc1-c1cnco1 [Compound 7] | pIC50 | 6.00 to 7.00

====

# tgt: IMPDH human type II (Homo sapiens, UniProt P12268)
# run-description: biochemical
# measurement-parameters: read-out: Ki
measured-property: Ki

compound | result
CC[C@H](COS(N)(=O)=O)OC(=O)NCc1cccc(NC(=O)Nc2ccc(-c3cnco3)c(OC)c2)c1 [Compound 138] | < 10 nM
CCC(COC)OC(=O)NCc1cccc(NC(=O)Nc2ccc(-c3cnco3)c(OC)c2)c1 (stereo not drawn) [Compound 42] | < 10 nM
CCN(CC)C[C@@H](CC#N)OC(=O)NCc1cccc(NC(=O)Nc2ccc(-c3cnco3)c(OC)c2)c1 [Compound 16] | < 10 nM
CCN(CC(OC(=O)NCc1cccc(NC(=O)Nc2ccc(-c3cnco3)c(OC)c2)c1)C1CCCCC1)C(C)C (stereo not drawn) [Compound 158] | 10 to 50 nM
CCC(CC#N)OC(=O)NCc1cccc(NC(=O)Nc2ccc(-c3cnco3)c(OC)c2)c1 (stereo not drawn) [Compound 27] | < 10 nM
CC[C@H](CC#N)OC(=O)NCc1cccc(NC(=O)Nc2ccc(-c3cnco3)c(OC)c2)c1 [Compound 81] | 10 to 50 nM
COc1cc(NC(=O)Nc2cccc(CNC(=O)OC3COCC3OCC(=O)O)c2)ccc1-c1cnco1 (stereo not drawn) [Compound 71] | < 10 nM
CCCN(CCC(OC(=O)NCc1cccc(NC(=O)Nc2ccc(-c3cnco3)c(OC)c2)c1)c1ccccc1)C(C)C (stereo not drawn) [Compound 107] | > 50 nM
CCC(CCN1CCOCC1)OC(=O)NCc1cccc(NC(=O)Nc2ccc(-c3cnco3)c(OC)c2)c1 (stereo not drawn) [Compound 65] | < 10 nM
COc1cc(NC(=O)Nc2cccc(CNC(=O)OC(CCN(CC3CC3)C(C)C)c3ccccc3)c2)ccc1-c1cnco1 (stereo not drawn) [Compound 131] | > 50 nM
COc1cc(NC(=O)Nc2cccc(CNC(=O)OC(CCN(CC(C)C)CC(C)C)c3ccccc3)c2)ccc1-c1cnco1 (stereo not drawn) [Compound 126] | > 50 nM
COc1cc(NC(=O)Nc2cccc(CNC(=O)OC(CCN(C)C(=O)OC(C)(C)C)c3ccccc3)c2)ccc1-c1cnco1 (stereo not drawn) [Compound 31] | 10 to 50 nM
CCC(CN(CC)CC)OC(=O)NCc1cccc(NC(=O)Nc2ccc(-c3cnco3)c(OC)c2)c1 (stereo not drawn) [Compound 87] | < 10 nM
COc1cc(NC(=O)Nc2cccc(CNC(=O)OC(CN(CC(C)C)CC(C)C)c3ccccc3)c2)ccc1-c1cnco1 (stereo not drawn) [Compound 116] | > 50 nM
COc1cc(NC(=O)Nc2cccc(CNC(=O)OC(C)CC#N)c2)ccc1-c1cnco1 (stereo not drawn) [Compound 26] | < 10 nM
COc1cc(NC(=O)Nc2cccc(CNC(=O)OC(CCN3CCOCC3)c3ccccc3)c2)ccc1-c1cnco1 (stereo not drawn) [Compound 48] | < 10 nM
CCCN(CC)CCC(OC(=O)NCc1cccc(NC(=O)Nc2ccc(-c3cnco3)c(OC)c2)c1)c1ccccc1 (stereo not drawn) [Compound 119] | > 50 nM
COc1cc(NC(=O)Nc2cccc(CNC(=O)O[C@@H]3CCC[C@H]3N3CCOCC3)c2)ccc1-c1cnco1 [Compound 86] | 10 to 50 nM
CCN(CCC(OC(=O)NCc1cccc(NC(=O)Nc2ccc(-c3cnco3)c(OC)c2)c1)c1ccccc1)C(C)C (stereo not drawn) [Compound 129] | > 50 nM
CC[C@@H](CCN(CC)CC)OC(=O)NCc1cccc(NC(=O)Nc2ccc(-c3cnco3)c(OC)c2)c1 [Compound 102] | < 10 nM
COc1cc(NC(=O)Nc2cccc(CNC(=O)O[C@@H](CO)CCC#N)c2)ccc1-c1cnco1 [Compound 57] | < 10 nM
COc1cc(NC(=O)Nc2cccc(CNC(=O)OC[C@H](CC#N)NC(=O)CC(C)(C)C)c2)ccc1-c1cnco1 [Compound 10] | < 10 nM
COc1cc(NC(=O)Nc2cccc(CNC(=O)O[C@H](CN(CC3CC3)C(C)C)c3ccccc3)c2)ccc1-c1cnco1 [Compound 110] | > 50 nM
COc1cc(NC(=O)Nc2cccc(CNC(=O)O[C@H](CC#N)COCc3ccccc3)c2)ccc1-c1cnco1 [Compound 55] | < 10 nM
COc1cc(NC(=O)Nc2cccc(CNC(=O)O[C@H](CN3CCSCC3)c3ccccc3)c2)ccc1-c1cnco1 [Compound 105] | < 10 nM
CCN(CC)CC(OC(=O)NCc1cccc(NC(=O)Nc2ccc(-c3cnco3)c(OC)c2)c1)c1nccs1 (stereo not drawn) [Compound 142] | 10 to 50 nM
COc1cc(NC(=O)Nc2cccc(CNC(=O)OCC(C)(C)CCC#N)c2)ccc1-c1cnco1 [Compound 7] | < 10 nM

====

# Test system: human PBMC T cells
# run-description: cells
# Type: cell-based
# measurement-parameters: Homo sapiens, 72 h, read-out: T-cells (IC50)
IC50: recorded values

compound | IC50
CCCC(CC#N)OC(=O)NCc1cccc(NC(=O)Nc2ccc(-c3cnco3)c(OC)c2)c1 (stereo not drawn) | 100 to 1000 nM
CCN(CCC(OC(=O)NCc1cccc(NC(=O)Nc2ccc(-c3cnco3)c(OC)c2)c1)c1ccccc1)C(C)C (stereo not drawn) | 100 to 1000 nM
CCC(CC#N)OC(=O)N[C@@H](C)c1cccc(NC(=O)Nc2ccc(C#N)c(Cl)c2)c1 (stereo partly drawn) | 100 to 1000 nM
COc1cc(NC(=O)Nc2cccc([C@H](C)NC(=O)OCCC#N)c2)ccc1C#N | 100 to 1000 nM
CCCC(COC)OC(=O)NCc1cccc(NC(=O)Nc2ccc(-c3cnco3)c(OC)c2)c1 (stereo not drawn) | 100 to 1000 nM
COc1cc(NC(=O)Nc2cccc(CNC(=O)OCC(OCc3ccco3)N(CCC#N)CC(C)C)c2)ccc1-c1cnco1 (stereo not drawn) | > 1000 nM
CCC(CC#N)OC(=O)NCc1cccc(NC(=O)Nc2ccc(-c3cnco3)c(OC)c2)c1 (stereo not drawn) | < 100 nM
C[C@H](NC(=O)O[C@H]1CCOC1)c1cccc(NC(=O)Nc2ccc(C#N)c(Cl)c2)c1 | 100 to 1000 nM
CCC(CN(CC)CC)OC(=O)NCc1cccc(NC(=O)Nc2ccc(-c3cnco3)c(OC)c2)c1 (stereo not drawn) | < 100 nM
CCN(CC)C[C@@H](OC(=O)NCc1cccc(NC(=O)Nc2ccc(-c3cnco3)c(OC)c2)c1)c1ccccc1 | 100 to 1000 nM
CCC(CC#N)OC(=O)NC(C)c1cccc(NC(=O)Nc2ccc(-c3cnco3)c(OC)c2)c1 (stereo not drawn) | < 100 nM
CCCN(CCC)CCC(OC(=O)NCc1cccc(NC(=O)Nc2ccc(-c3cnco3)c(OC)c2)c1)c1ccccc1 (stereo not drawn) | > 1000 nM
CCC(CCO)OC(=O)NCc1cccc(NC(=O)Nc2ccc(-c3cnco3)c(OC)c2)c1 (stereo not drawn) | 100 to 1000 nM
COc1cc(NC(=O)Nc2cccc(CNC(=O)OC(CC[N+](C)(C)C)c3ccccc3)c2)ccc1-c1cnco1 (stereo not drawn) | > 1000 nM
COc1cc(NC(=O)Nc2cccc(CNC(=O)OC(CN(CC(C)C)CC3CC3)c3ccccc3)c2)ccc1-c1cnco1 (stereo not drawn) | > 1000 nM
COc1cc(NC(=O)Nc2cccc(CNC(=O)OC[C@H](N)CC#N)c2)ccc1-c1cnco1 | 100 to 1000 nM
CCCN(CCC)CC(OC(=O)NCc1cccc(NC(=O)Nc2ccc(-c3cnco3)c(OC)c2)c1)c1ccccc1 (stereo not drawn) | > 1000 nM
CC[C@@H](CO)OC(=O)NCc1cccc(NC(=O)Nc2ccc(-c3cnco3)c(OC)c2)c1 | 100 to 1000 nM

Reference source for all entries: patent US7087642B2
